- target.under.test: T1, human TGFβ3, mature dimeric form (human, UniProt P10600 301-412)
- T1 construct: Peprotech, expressed in E. coli; also called TGFb3
- T1 sequence: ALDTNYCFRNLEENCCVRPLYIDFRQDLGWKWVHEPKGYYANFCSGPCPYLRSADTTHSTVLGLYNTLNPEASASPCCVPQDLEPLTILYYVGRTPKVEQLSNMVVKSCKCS
- test.summary: BIAcore T200
pKd: −log10 of the molar value.
test.readout: pKd

>>> numeric_value("h4A11.v5 (antibody, human IgG1, kappa, N297G, V domains shown) VH: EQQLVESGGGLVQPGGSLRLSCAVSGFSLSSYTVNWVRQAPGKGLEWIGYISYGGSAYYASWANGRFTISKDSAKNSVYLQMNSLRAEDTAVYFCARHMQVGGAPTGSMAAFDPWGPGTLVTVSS VL: EAVLTQSPGTLSLSPGERATLSCQSSQSVYNNNYLSWFQQKPGQPPRLLIYGASTLTSGVPDRFSGSGSGTDFTLTISRLEPEDFAVYYCAGGYSGSSDKYAFGGGTKVEIKR")
10.86
